Source listed as patent US20240116985A1.

# TARGET_SYSTEM: full-length beta-Catenin (Uniprot ID P35222) (Homo sapiens (Human)) (UniProt P35222)
# Sequence (P35222 whole entry): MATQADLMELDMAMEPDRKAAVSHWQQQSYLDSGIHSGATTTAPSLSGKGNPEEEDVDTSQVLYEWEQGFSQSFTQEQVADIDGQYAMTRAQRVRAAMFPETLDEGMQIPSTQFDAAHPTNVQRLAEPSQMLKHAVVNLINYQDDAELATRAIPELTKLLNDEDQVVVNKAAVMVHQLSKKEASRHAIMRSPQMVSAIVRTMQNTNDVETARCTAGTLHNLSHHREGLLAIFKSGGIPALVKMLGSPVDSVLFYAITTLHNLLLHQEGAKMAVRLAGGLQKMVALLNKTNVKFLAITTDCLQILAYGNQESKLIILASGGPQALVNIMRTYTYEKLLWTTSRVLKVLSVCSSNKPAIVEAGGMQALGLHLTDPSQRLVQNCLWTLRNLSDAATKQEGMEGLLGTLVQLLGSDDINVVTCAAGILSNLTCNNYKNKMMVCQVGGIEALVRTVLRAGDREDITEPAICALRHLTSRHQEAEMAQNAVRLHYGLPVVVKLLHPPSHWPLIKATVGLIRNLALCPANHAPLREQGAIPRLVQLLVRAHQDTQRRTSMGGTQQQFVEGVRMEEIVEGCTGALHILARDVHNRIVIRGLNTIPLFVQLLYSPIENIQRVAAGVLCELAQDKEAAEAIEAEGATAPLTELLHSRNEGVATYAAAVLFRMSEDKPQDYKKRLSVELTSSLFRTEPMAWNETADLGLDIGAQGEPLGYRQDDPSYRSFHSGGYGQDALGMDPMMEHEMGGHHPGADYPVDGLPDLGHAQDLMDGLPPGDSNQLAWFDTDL
# ASSAY_SUMMARY: fluorescence polarization competition; full-length beta-catenin + 5FAM-TCF4(10-53) probe
Starred links: 1 amine or outer side, 2 acyl side, 3 side chain; linkers in the order of their positions; H or OH if unused. Positions of bridges follow the written chain, without caps; N, C: chain ends. Non-standard residues stand in square brackets, D forms with d. Primed or numbered codes have the meaning given here. PyrS2″ = (S)-3-amino-1-((pent-4-en-1-yloxy)carbonyl)pyrrolidine-3-carboxylic acid (stapling residue), C=CCCCOC(=O)N1CC[C@@](N[*:1])(C(=O)[*:2])C1; B5(5) = 2,2-bis(4-pentenyl)glycine, 2-amino-2-(pent-4-en-1-yl)hept-6-enoic acid (stitching residue), C=CCCCC(CCCC=C)(N[*:1])C(=O)[*:2]; B5(3) = 2,2-bis(4-pentenyl)glycine (stitching residue), C=CCCCC(CCCC=C)(N[*:1])C(=O)[*:2]; Phe(2-Cl) = N[C@@H](Cc1ccccc1Cl)C(=O)O; 1Nal = N[C@@H](Cc1cccc2ccccc12)C(=O)O; Bta = N[C@@H](Cc1csc2ccccc12)C(=O)O; Lys(iPr) = CC(C)NCCCC[C@H](N)C(=O)O; αAllylPro = C=CC[C@@]1(C(=O)O)CCCN1; tBuAla = CC(C)(C)C[C@H](N)C(=O)O
// values below are reported EC50

BINDER: Ac-[αAllylPro]D[tBuAla][B5(5)]DD[Lys(iPr)]AFT[PyrS2″][Phe(2-Cl)][Bta]T-NH2 (staple 1-4; staple 4-11 (inferred); not fully specified; printed as Ac-PL3-Asp-Npg-B5-Asp-Asp-iPrLys-Ala-Phe-Thr-PyrS2-2C1F-BztA-Thr-NH2) [I-1273]
EC50 [nM]: 9

BINDER: Ac-[αAllylPro]D[tBuAla][B5(3)]DTAA[1Nal]T[PyrS2″]F[Bta]S-NH2 (staple 1-4; staple 4-11 (inferred); not fully specified; printed as Ac-PL3-Asp-Npg-B5-Asp-Thr-Ala-Ala-1NapA-Thr-PyrS2-Phe-BztA-Ser-NH2) [I-1266]
EC50 [nM]: 755
